Values compiled from paper PMC5038265.

# key: entry, value: half-life
Test: in vivo
Conditions: mouse, in vivo, iv, 30 mg/kg, α-t1/2, mouse
Procedure: Mouse pharmacokinetic studies were conducted by using female CD-1 mice for compounds 1, 11, and 12, while BALB/c mice were used for compound 13. […] Antibiotic concentrations in the plasma samples were analyzed by liquid chromatography-tandem mass spectrometry (LC-MS/MS). […] The limit of quantitation (LOQ) was 1 or 2 ng/ml. […]
Please provide the amount together with its unit, number first.

CCOc1ccc(Cl)c2c1B(O)O[C@@H]2CN [Compound 13]    6 min

Form: compound = CCOc1ccc(Br)c2c1B(O)O[C@@H]2CN [Compound 14] ; half-life = 3 min

Form: compound = CCOc1cccc2c1B(O)O[C@@H]2CN [Compound 2] ; half-life = 3.6 min

Form: compound = CCOc1ccc(F)c2c1B(O)O[C@@H]2CN [Compound 12] ; half-life = 6.6 min
